test system: HCT-15 colon; assay: NCI tumour cell line growth inhibition, 48 h
Here the recorded TGI is given for each entry.
Enter your answer as a number in µM; do not include the unit.

Structure notation | TGI (µM)
Clc1ccc(Nc2ccnc(NCCNc3ccnc4cc(Cl)ccc34)n2)cc1 | 2.36
COc1ccc(/C=C/C(=O)c2cccc(C(=O)/C=C/c3ccc(OC)c(OC)c3)n2)cc1OC | 55
O=C(c1c(F)c(F)c(F)c(F)c1F)n1c(=O)[nH]c2ccccc21 | 15.6

query: Find the recorded TGI belonging to `Cc1c(C(=O)CCl)c(=O)n(-c2ccccc2)n1C` and report it.
result: 15.5

query: Find the recorded TGI belonging to `O=C1C(Cl)=C(Oc2ccccc2)C(=O)c2ccccc21` and report it.
result: 31.5

Attribution: PubChem BioAssay (NCI)
